study_system: T1, recombinant human MASP1 active protease (amino acids 297-699, C-terminal His Tag) (human, UniProt P48740 297-699)
T1 sequence: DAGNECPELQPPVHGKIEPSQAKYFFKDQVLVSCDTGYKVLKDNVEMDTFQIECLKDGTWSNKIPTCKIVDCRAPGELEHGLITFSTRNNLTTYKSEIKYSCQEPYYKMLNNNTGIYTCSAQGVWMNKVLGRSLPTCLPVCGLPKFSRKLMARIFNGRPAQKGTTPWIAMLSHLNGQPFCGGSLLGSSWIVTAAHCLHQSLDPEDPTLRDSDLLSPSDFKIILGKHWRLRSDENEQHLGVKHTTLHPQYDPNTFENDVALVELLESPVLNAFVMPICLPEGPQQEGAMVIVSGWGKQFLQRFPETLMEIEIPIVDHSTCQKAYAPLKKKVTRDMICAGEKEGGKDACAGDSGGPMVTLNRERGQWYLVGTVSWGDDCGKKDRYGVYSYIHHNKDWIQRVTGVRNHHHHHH
measurement_protocol: cell-based or functional assay
Bridge positions count the residues as written; N and C are the ends. Square brackets hold non-standard residues; d marks the D form. Ends that are not written are not given here. tBuAla = CC(C)(C)C[C@H](N)C(=O)O; NMeC = CN[C@@H](CS)C(=O)O
measured_attribute: human MASP1 IC50 (nM)

binder | meas_value
KICSRS[tBuAla]PPI[NMeC]I-NH2 (disulfide 3-11; N-terminus assumed; SMILES CC[C@H](C)[C@H](NC(=O)[C@@H]1CSSC[C@H](NC(=O)[C@@H](NC(=O)[C@@H](N)CCCCN)[C@@H](C)CC)C(=O)N[C@@H](CO)C(=O)N[C@@H](CCCNC(=N)N)C(=O)N[C@@H](CO)C(=O)N[C@@H](CC(C)(C)C)C(=O)N2CCC[C@H]2C(=O)N2CCC[C@H]2C(=O)N[C@@H]([C@@H](C)CC)C(=O)N1C)C(N)=O) [KIC+SRS-((tBu)A)-PPI-((N-Me)C)+I-NH2] | 2.4
